- Test system: AMPK-alpha2;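 also: KINOMEscan kinase panel screen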
- Construct: gene PRKAA2
- Condition Description: concentration: 1 μM, replicates: in singlicate; n = 1
Hi there, I'd appreciate the recorded %Inh for every entry that follows.
Numbers only, in %.

- Compound: "O=C(Nc1n[nH]c2nc(-c3ccccc3O)ccc12)C1CC1 [SB-711880]"
  %Inh (%): 0
- Compound: "O=C(Nc1n[nH]c2nc(-c3ccccc3)ccc12)C1CC1 [SB-708999]"
  %Inh (%): 12
- Compound: "Cc1nn2c(=O)cc(N3CCO[C@H](C)C3)nc2n1Cc1cccc(Cl)c1Cl [GSK2373693]"
  %Inh (%): 11
- Compound: "CCNC(=O)/C=C/c1n[nH]c2cc(Sc3ccccc3C(=O)NC)ccc12"
  %Inh (%): 14
- Compound: "COc1ccc(C)c(Nc2ccnc(Nc3ccc(-c4cnc[nH]4)cc3)n2)c1.Cl [GW784041]"
  %Inh (%): 0
- Compound: "N#Cc1cnc2cc(-c3cnc(CNCCN4CCOCC4)s3)ccc2c1Nc1ccc(Oc2ccccc2)cc1 [GW664114]"
  %Inh (%): 30
- Compound: "CN1CCN(Cc2ccc(NC(=O)Nc3ccc(N(C)c4ccnc(Nc5ccc(CS(C)(=O)=O)cc5)n4)cc3)cc2)CC1.Cl [GW827654]"
  %Inh (%): 34
- Compound: "Nc1ncc(-c2cn[nH]c2)c2scc(-c3ccc4c(c3)CCN4C(=O)Cc3ccccc3)c12 [GSK2593067]"
  %Inh (%): 16
- Compound: "CN(c1ccc(NC(=O)Nc2cccc(Cl)c2)cc1)c1ccnc(N)n1.Cl [GW830707]"
  %Inh (%): 18
- Compound: "CCOc1nccc(-c2c(-c3ccc(F)cc3)ncn2C2CCNCC2)n1 [SB-249175]"
  %Inh (%): 5

Below are 3 compounds. Give each one its %Inh.
1. CCn1cnc2c(NCc3ccccc3)ncnc21 [SKF-96418]
2. Cc1ccc(Nc2ccnc(Nc3ccc(C)c(F)c3)n2)cc1O.Cl [GW582868]
3. Cc1ccc(NC(=O)c2ccc(Cl)c(Cl)c2)cc1-c1ccc(C(=O)Nc2ccncc2)cc1 [GSK1398460]

-- reply
0
0
21
